TARGET_OR_SYSTEM: Sodium- and chloride-dependent glycine transporter 1 (Homo sapiens)
Sequence (P48067 whole entry): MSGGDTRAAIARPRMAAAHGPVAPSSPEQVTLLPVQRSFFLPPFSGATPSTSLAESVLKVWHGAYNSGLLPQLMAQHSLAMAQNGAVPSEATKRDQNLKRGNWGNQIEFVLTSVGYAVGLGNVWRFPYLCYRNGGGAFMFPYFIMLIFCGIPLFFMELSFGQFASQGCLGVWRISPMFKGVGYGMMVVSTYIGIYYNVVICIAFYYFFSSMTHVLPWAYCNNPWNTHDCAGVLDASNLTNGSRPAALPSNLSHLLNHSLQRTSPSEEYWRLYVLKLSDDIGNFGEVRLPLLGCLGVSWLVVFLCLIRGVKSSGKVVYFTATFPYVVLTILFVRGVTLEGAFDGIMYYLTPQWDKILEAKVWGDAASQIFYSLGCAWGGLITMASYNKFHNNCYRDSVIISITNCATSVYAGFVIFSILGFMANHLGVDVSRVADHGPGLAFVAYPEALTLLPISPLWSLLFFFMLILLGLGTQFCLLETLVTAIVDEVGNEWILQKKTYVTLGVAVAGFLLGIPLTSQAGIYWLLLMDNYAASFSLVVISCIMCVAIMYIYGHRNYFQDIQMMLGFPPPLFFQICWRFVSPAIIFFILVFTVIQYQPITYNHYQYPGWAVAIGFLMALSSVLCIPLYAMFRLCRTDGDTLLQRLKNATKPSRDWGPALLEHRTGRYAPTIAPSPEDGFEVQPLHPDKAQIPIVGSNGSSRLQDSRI
TEST_METHOD_NOTES: Inhibition of GlyT1 (unknown origin) expressed in MDCK cells using [3H]-glycine as substrate after 10 mins by scintillation counting
pIC50: −log10 of the molar value.
READOUT_NAME: pIC50

• O=C1OC[C@H](Cc2ccc3c(c2)OCO3)[C@H]1Cc1ccc2c(c1)OCO2 [HINOKININ] = < 3.30

###

TARGET_OR_SYSTEM: Sodium-dependent noradrenaline transporter (Homo sapiens)
Sequence (P23975 whole entry): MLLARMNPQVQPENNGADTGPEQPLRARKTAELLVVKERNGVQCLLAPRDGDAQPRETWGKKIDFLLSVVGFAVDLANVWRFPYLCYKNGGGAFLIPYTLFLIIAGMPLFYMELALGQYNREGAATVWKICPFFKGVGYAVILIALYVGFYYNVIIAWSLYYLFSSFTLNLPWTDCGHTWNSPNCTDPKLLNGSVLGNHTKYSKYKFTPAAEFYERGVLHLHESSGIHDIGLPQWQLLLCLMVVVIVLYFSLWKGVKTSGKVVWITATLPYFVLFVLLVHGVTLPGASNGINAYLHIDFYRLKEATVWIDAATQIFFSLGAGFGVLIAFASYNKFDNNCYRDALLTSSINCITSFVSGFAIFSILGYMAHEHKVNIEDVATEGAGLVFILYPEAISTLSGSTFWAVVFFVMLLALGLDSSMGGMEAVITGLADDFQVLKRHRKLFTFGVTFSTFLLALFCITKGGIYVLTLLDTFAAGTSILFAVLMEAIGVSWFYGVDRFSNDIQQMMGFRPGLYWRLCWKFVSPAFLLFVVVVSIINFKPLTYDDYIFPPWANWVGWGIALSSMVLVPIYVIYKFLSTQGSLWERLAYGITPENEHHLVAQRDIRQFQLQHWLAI
TEST_METHOD_NOTES: Inhibition of human NET expressed in MDCK cells using [3H]-norepinephrine as substrate after 10 mins by scintillation counting
READOUT_NAME: IC50 (µM)

- O=C1OC[C@H](Cc2ccc3c(c2)OCO3)[C@H]1Cc1ccc2c(c1)OCO2: 8.76

###

TARGET_OR_SYSTEM: Excitatory amino acid transporter 1 (Homo sapiens)
Sequence (P43003 whole entry): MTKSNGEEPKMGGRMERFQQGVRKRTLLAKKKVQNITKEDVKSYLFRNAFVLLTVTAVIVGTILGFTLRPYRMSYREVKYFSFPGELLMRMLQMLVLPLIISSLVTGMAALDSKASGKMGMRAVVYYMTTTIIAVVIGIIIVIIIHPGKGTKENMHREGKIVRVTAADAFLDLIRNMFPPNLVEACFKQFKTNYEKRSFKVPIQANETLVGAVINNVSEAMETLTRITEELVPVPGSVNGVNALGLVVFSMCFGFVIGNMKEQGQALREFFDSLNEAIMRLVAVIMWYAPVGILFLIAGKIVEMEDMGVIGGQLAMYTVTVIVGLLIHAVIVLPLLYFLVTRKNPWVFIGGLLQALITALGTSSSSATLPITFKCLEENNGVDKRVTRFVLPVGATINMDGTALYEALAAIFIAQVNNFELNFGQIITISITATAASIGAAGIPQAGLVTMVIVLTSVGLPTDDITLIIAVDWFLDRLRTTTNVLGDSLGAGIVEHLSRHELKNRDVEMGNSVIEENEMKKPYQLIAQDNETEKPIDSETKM
TEST_METHOD_NOTES: Inhibition of EAAT1 (unknown origin) expressed in african green monkey COS7 cells using [3H]-glutamic acid as substrate after 10 mins by scintillation counting
Format: cell-based, COS-7
pIC50: −log10 of the molar value.
READOUT_NAME: pIC50

• O=C1OC[C@H](Cc2ccc3c(c2)OCO3)[C@H]1Cc1ccc2c(c1)OCO2 [HINOKININ] = < 3.30

###

TARGET_OR_SYSTEM: Sodium-dependent dopamine transporter (Homo sapiens, UniProt Q01959)
Sequence (Q01959 whole entry): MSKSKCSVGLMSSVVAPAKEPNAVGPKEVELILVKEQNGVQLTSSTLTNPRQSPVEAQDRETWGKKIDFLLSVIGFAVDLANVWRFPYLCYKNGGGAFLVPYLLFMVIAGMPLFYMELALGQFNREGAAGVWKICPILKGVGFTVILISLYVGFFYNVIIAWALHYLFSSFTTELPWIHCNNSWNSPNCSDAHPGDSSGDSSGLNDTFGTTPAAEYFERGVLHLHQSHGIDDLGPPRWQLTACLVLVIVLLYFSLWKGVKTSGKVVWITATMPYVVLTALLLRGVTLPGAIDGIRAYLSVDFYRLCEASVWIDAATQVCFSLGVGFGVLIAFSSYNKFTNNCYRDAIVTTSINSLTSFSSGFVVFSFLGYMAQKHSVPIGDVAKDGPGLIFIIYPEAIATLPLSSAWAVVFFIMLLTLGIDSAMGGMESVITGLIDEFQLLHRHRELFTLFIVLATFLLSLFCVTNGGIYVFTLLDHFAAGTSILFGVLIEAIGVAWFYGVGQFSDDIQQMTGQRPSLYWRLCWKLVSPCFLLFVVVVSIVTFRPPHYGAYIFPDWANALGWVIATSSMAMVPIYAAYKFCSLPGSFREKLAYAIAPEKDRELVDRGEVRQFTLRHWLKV
TEST_METHOD_NOTES: Inhibition of human DAT expressed in MDCK cells using [3H]-dopamine as substrate after 10 mins by scintillation counting
Below, each entry is listed alongside its reported IC50.
READOUT_NAME: IC50 (µM)

* O[C@H]1OC[C@H](Cc2ccc3c(c2)OCO3)[C@H]1Cc1ccc2c(c1)OCO2 | 12
* O=C1OC[C@H](Cc2ccc3c(c2)OCO3)[C@H]1Cc1ccc2c(c1)OCO2 [HINOKININ] | 8.35
* COC1OC[C@@H](Cc2ccc3c(c2)OCO3)[C@@H]1Cc1ccc2c(c1)OCO2 (stereo partly drawn) [(-)-O-METHYLCUBEBIN] | 78.6
